Give fold difference in affinity vs parental ING-1 for every item shown.
Biological target: T1, Ep-CAM (UniProt P16422 24-265, limits assumed)
T1 construct: Amine coupled to a CM5 chip in the Biacore assays
T1 sequence (looked up): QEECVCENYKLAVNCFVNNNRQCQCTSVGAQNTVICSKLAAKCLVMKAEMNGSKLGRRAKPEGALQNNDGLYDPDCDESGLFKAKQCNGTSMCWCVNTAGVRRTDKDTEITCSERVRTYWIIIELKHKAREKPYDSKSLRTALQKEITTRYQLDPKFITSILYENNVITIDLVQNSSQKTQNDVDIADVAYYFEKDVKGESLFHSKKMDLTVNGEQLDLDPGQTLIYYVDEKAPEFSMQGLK
Test: Biacore, Fab periplasmic extract
One number for each entry, in fold.

A selection of reference data follows.
binder: ING-1 light chain N33K (Fab, V domains shown, Fab, periplasmic extract) VH: QIQLVQSGPELKKPGETVKISCKASGYTFTKYGMNWVKQAPGKGLKWMGWINTYTEEPTYGDDFKGRFAFSLETSASTANLQINNLKSEDTATYFCARFGSAVDYWGQGTSVTVSS VL: DIVMTQAAFSNPVTLGTSGSISCRSSKSLLHSKGITYLYWYLQKPGQSPQLLIYQMSNLASGVPDRFSSSGSGTDFTLRISRVEAEDVGVYYCAQNLELPRTFGGGTKLEMKR
testResult: 0.7
--
binder: ING-1 light chain Q55E (Fab, V domains shown, Fab, periplasmic extract) VH: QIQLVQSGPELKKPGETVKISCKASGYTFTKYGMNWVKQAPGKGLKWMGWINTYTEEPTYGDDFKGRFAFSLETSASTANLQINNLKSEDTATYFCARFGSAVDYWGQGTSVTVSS VL: DIVMTQAAFSNPVTLGTSGSISCRSSKSLLHSNGITYLYWYLQKPGQSPQLLIYEMSNLASGVPDRFSSSGSGTDFTLRISRVEAEDVGVYYCAQNLELPRTFGGGTKLEMKR
testResult: 0.05

Now, please, on to the next binder.
Need fold difference in affinity vs parental ING-1, item ING-1 light chain Y37Q (Fab, V domains shown, Fab, periplasmic extract) VH: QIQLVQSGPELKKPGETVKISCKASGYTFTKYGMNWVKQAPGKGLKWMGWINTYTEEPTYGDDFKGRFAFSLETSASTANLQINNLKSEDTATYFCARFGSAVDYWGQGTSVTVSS VL: DIVMTQAAFSNPVTLGTSGSISCRSSKSLLHSNGITQLYWYLQKPGQSPQLLIYQMSNLASGVPDRFSSSGSGTDFTLRISRVEAEDVGVYYCAQNLELPRTFGGGTKLEMKR
0.02
